Target or system cloned human δ opioid receptor (Homo sapiens (Human)): recorded pKi listed per item.
Entry type: numeric. Quantity: pKi, the -log10 of concentration in molar units.

Study these solved cases before continuing.
molecule | pKi
C[C@H]1CN2CCN(C(=O)c3ccccc3)C[C@H]2C[C@@]1(C)c1cccc(O)c1 [Example 2C] | 7.60
C[C@H]1CN2C[C@H](Cc3ccccc3)NC[C@H]2C[C@@]1(C)c1cccc(O)c1 [Example 4] | 7.44
C[C@H]1CN2CCN(Cc3ccccc3)C[C@H]2C[C@@]1(C)c1cccc(O)c1 [Example 2D] | 6.86

stdin: Give the reported pKi for C[C@H]1CN2CCN(CCc3ccccc3)C[C@H]2C[C@@]1(C)c1cccc(O)c1 [Example 2B] (system: cloned human δ opioid receptor (Homo sapiens (Human))).
Sequence (P41143 whole entry): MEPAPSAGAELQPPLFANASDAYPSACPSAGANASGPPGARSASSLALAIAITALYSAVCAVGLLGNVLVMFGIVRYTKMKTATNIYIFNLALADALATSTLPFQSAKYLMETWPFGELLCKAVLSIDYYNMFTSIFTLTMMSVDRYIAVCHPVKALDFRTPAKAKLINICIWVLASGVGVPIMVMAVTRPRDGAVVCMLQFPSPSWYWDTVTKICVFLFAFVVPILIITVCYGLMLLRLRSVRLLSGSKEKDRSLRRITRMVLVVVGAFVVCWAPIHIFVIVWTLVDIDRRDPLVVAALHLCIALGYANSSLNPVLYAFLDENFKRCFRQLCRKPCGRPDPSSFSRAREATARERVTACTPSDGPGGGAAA
stdout: 6.62

stdin: Give the reported pKi for C[C@H]1CN2C[C@H](c3ccccc3)CC[C@H]2C[C@@]1(C)c1cccc(O)c1 [Example 1] (system: cloned human δ opioid receptor (Homo sapiens (Human))).
stdout: 7.52

stdin: Give the reported pKi for C[C@H]1CN2C[C@H](c3ccccc3)NC[C@H]2C[C@@]1(C)c1cccc(O)c1 [Example 3A] (system: cloned human δ opioid receptor (Homo sapiens (Human))).
stdout: 7.06

stdin: Give the reported pKi for C[C@H]1CN2C[C@H](c3ccccc3)N(C)C[C@H]2C[C@@]1(C)c1cccc(O)c1 [Example 3B] (system: cloned human δ opioid receptor (Homo sapiens (Human))).
stdout: 6.15

====

Target or system cloned human μ opioid receptor (Homo sapiens (Human)): recorded pKi listed per item.
Entry type: numeric. Quantity: pKi, the -log10 of concentration in molar units.

Study these solved cases before continuing.
compound_structure | system | measurement
C[C@H]1CN2C[C@H](c3ccccc3)NC[C@H]2C[C@@]1(C)c1cccc(O)c1 | cloned human μ opioid receptor (Homo sapiens (Human)) | 8.44
C[C@H]1CN2C[C@H](Cc3ccccc3)NC[C@H]2C[C@@]1(C)c1cccc(O)c1 | cloned human μ opioid receptor (Homo sapiens (Human)) | 8.05
C[C@H]1CN2C[C@H](c3ccccc3)N(C)C[C@H]2C[C@@]1(C)c1cccc(O)c1 | cloned human μ opioid receptor (Homo sapiens (Human)) | 8.48
C[C@H]1CN2CCN(C(=O)c3ccccc3)C[C@H]2C[C@@]1(C)c1cccc(O)c1 | cloned human μ opioid receptor (Homo sapiens (Human)) | 8.70
C[C@H]1CN2C[C@H](c3ccccc3)CC[C@H]2C[C@@]1(C)c1cccc(O)c1 | cloned human μ opioid receptor (Homo sapiens (Human)) | 9.24

stdin: Give the reported pKi for "C[C@H]1CN2CCN(Cc3ccccc3)C[C@H]2C[C@@]1(C)c1cccc(O)c1" (system: cloned human μ opioid receptor (Homo sapiens (Human))).
Sequence (P35372 whole entry): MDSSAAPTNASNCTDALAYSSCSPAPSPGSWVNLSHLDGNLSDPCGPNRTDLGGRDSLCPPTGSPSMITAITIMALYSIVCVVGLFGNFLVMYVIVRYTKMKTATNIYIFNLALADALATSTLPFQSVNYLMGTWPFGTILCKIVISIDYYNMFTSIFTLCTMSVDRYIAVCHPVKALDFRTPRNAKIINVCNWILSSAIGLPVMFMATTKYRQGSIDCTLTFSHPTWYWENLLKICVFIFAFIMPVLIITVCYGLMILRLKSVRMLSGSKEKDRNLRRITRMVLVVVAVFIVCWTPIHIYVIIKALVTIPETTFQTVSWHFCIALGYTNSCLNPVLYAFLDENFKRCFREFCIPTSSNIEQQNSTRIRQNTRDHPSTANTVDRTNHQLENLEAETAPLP
stdout: 8.96

====

Target or system cloned human κ opioid receptor (Homo sapiens (Human)): recorded pKi listed per item.
Entry type: numeric. Quantity: pKi, the -log10 of concentration in molar units.

Study these solved cases before continuing.
compound_structure | measurement
C[C@H]1CN2CCN(Cc3ccccc3)C[C@H]2C[C@@]1(C)c1cccc(O)c1 | 7.36
C[C@H]1CN2CCN(CCc3ccccc3)C[C@H]2C[C@@]1(C)c1cccc(O)c1 | 6.95
C[C@H]1CN2C[C@H](Cc3ccccc3)NC[C@H]2C[C@@]1(C)c1cccc(O)c1 | 7.07
C[C@H]1CN2C[C@H](c3ccccc3)NC[C@H]2C[C@@]1(C)c1cccc(O)c1 | 7.74
C[C@H]1CN2CCN(C(=O)c3ccccc3)C[C@H]2C[C@@]1(C)c1cccc(O)c1 | 6.72

stdin: Give the reported pKi for "C[C@H]1CN2C[C@H](c3ccccc3)N(C)C[C@H]2C[C@@]1(C)c1cccc(O)c1" (system: cloned human κ opioid receptor (Homo sapiens (Human))).
Sequence (P41145 whole entry): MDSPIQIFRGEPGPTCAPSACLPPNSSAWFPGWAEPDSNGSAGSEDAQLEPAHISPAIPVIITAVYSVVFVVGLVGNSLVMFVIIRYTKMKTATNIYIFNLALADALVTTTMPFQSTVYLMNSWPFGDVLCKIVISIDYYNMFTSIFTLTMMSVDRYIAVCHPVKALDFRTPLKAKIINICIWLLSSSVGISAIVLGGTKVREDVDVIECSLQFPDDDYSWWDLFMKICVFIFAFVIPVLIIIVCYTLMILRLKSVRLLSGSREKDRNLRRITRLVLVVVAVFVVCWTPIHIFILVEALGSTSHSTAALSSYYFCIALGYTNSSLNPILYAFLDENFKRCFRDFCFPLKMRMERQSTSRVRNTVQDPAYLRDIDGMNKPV
stdout: 7.92

stdin: Give the reported pKi for "C[C@H]1CN2C[C@H](c3ccccc3)CC[C@H]2C[C@@]1(C)c1cccc(O)c1" (system: cloned human κ opioid receptor (Homo sapiens (Human))).
stdout: 8.05
